Where do the numbers come from? From patent US20170037007A1.

Below are IC50 values recorded for UniProtKB Q13822.

Worked cases, IC50 given:
smiles data	IC50
Cc1cccc(C(=O)N[C@@H](C(=O)N2CCC(C)(Nc3ccc(S(C)(=O)=O)cc3)CC2)C(C)C)c1F	0.5 to 5 µM
COc1ccc(CNC2(C)CCN(C(=O)[C@H](NC(=O)c3cc(OC(F)(F)F)ccc3F)C(C)C)CC2)cc1	0.1 to 0.5 µM

**Q:** Give IC50 for CNC(=O)C1(Oc2ccccc2)CCN(C(=O)[C@H](NC(=O)c2cccc(C)c2F)C(C)C)CC1 tested on UniProtKB Q13822.
**A:** 0.5 to 5 µM

**Q:** Give IC50 for CC(C)[C@@H](NC(=O)c1cc(C(F)(F)F)ccc1F)C(=O)N1CCC(C)(Nc2ccc(C(=O)O)cc2)CC1 tested on UniProtKB Q13822.
**A:** 0.1 to 0.5 µM
